Target chain: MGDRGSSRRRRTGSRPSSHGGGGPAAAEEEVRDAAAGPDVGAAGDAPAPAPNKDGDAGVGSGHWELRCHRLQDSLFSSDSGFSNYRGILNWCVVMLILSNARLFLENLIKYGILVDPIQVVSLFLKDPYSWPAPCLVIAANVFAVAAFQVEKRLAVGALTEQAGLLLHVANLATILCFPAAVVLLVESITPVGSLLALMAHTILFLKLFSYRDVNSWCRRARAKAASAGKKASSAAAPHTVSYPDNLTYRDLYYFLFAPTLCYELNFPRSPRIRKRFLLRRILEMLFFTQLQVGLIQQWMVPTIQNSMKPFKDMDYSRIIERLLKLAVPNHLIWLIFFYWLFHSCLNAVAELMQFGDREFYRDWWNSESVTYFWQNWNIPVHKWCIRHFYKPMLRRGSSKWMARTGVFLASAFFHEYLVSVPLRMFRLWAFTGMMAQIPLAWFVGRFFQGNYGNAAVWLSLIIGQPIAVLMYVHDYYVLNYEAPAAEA
ATTRIBUTE_MEASURED: IC50

Examples with answers:
GET /value?item= O=C(O)CC1(CC(F)(F)F)CCc2cc(-c3cnc(Nc4ccc(Cl)cn4)cn3)ccc2C1=O (single isomer, unassigned) [Example 17] &field=IC50 returns 0.1 to 0.5 µM

GET /value?item= O=C(O)CC1(CC(F)(F)F)CCc2cc(-c3ccc(Nc4ccc(C(F)(F)F)nc4)cn3)ccc2C1=O (single isomer, unassigned) &field=IC50 returns ≤ 0.1 µM

GET /value?item= CCC1(CC(=O)O)CCc2cc(-c3ccc(Nc4ccc(C(F)(F)F)nc4)cn3)ccc2C1=O (single isomer, unassigned) [Example 4] &field=IC50 returns ≤ 0.1 µM

GET /value?item= O=C(O)CC1(CC(F)(F)F)CCc2cc(-c3cnc(Nc4ccc(C(F)(F)F)nc4)s3)ccc2C1=O (single isomer, unassigned) [Example 28] &field=IC50 returns ≤ 0.1 µM

GET /value?item= CCC1(CC(=O)O)CCc2cc(-c3ccc(Nc4ccc(C(F)(F)F)nc4)cn3)ccc2C1=O (single isomer, unassigned) [Example 5] &field=IC50 returns 0.1 to 0.5 µM

Next:
GET /value?item= O=C(O)CC1(CC(F)(F)F)CCc2cc(-c3cnc(Nc4ccc5c(c4)OCO5)cn3)ccc2C1=O (single isomer, unassigned) [Example 19] &field=IC50 returns 0.1 to 0.5 µM

GET /value?item= O=C(O)CC1(CC(F)(F)F)CCc2cc(-c3cnc(Nc4ccc(Cl)cn4)cn3)ccc2C1=O (single isomer, unassigned) [Example 18] &field=IC50 returns 0.1 to 0.5 µM

GET /value?item= O=C(O)CC1(CC(F)(F)F)CCc2cc(-c3ccc(Nc4cccc(Cl)c4)cn3)ccc2C1=O (single isomer, unassigned) &field=IC50 returns 0.1 to 0.5 µM

====

# reported pIC50; entries follow
Target sequence: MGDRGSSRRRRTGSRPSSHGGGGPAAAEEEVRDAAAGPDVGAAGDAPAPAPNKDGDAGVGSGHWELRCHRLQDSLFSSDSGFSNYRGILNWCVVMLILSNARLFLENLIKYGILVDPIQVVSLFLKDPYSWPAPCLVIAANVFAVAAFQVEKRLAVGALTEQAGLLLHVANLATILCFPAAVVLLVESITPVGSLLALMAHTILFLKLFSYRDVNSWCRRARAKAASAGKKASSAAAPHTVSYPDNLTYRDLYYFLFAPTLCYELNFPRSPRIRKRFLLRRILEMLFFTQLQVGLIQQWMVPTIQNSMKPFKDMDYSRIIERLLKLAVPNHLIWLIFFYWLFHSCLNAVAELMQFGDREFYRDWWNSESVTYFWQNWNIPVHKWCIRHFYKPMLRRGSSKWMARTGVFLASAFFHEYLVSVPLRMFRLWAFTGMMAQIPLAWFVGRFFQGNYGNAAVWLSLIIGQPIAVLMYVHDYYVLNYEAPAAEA
pIC50: −log10 of the molar value.

Examples with answers:
GET /value?item= O=C(O)CC1(CC(F)(F)F)CCc2cc(-c3cnc(Nc4ccc(C(F)(F)F)nc4)s3)ccc2C1=O (single isomer, unassigned) [Example 27] &field=pIC50 returns 6.30 to 7.00

GET /value?item= O=C(O)CC1(CC(F)(F)F)CCc2cc(-c3ccc(Nc4ccc(Cl)cc4)cn3)ccc2C1=O (single isomer, unassigned) &field=pIC50 returns ≥ 7.00

Consider the record given below.
GET /value?item= O=C(O)CC1(CC(F)(F)F)CCc2cc(-c3cnc(Nc4ccc5c(c4)OCO5)cn3)ccc2C1=O (single isomer, unassigned) [Example 20] &field=pIC50 returns 5.00 to 6.30
